IC50: recorded values
- assayed target: hNCC(N227A) (Homo sapiens, UniProt P55017, N227A)
- Sequence (P55017 1-1021 N227A): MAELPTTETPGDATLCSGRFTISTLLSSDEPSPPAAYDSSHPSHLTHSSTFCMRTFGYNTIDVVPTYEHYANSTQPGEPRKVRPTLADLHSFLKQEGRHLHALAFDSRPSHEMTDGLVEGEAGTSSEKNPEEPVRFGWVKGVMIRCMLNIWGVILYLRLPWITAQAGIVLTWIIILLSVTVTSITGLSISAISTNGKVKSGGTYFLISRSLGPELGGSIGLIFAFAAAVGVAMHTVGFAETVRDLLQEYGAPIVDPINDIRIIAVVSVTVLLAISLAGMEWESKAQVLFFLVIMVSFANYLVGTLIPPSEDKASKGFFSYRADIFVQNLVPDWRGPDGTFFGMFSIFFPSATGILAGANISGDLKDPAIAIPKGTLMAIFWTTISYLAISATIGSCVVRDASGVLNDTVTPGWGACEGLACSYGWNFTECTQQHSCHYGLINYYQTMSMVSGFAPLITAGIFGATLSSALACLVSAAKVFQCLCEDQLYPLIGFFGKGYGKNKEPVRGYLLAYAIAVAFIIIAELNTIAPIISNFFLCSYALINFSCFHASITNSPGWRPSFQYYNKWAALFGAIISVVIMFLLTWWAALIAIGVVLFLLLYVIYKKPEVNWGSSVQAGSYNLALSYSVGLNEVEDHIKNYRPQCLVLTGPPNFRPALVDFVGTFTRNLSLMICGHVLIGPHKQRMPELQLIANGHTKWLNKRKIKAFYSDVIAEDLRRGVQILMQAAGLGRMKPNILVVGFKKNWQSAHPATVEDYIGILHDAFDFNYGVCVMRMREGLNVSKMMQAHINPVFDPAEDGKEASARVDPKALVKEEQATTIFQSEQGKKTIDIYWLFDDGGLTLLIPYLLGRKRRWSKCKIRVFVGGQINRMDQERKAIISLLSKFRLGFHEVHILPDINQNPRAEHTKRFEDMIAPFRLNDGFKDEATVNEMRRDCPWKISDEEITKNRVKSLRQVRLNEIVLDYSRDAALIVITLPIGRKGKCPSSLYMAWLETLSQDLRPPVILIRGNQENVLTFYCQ
- assay name: 125I- uptake assay, hNCC(N227A) variant
- protocol conditions: iodide uptake, N227A substitution
Report the value in µM with no unit label.

NS(=O)(=O)c1cc(C2(O)NC(=O)c3ccccc32)ccc1Cl (centres unmarked) [chlorthalidone] | 59

Switching to the query record.
In: # lookup: IC50 of CC1Cc2ccccc2N1NC(=O)c1ccc(Cl)c(S(N)(=O)=O)c1 (centres unmarked) [indapamide]
Out: 620

====

- assayed target: hNCC(G230A) (Homo sapiens, UniProt P55017, G230A)
- assay name: 125I- uptake assay, hNCC(G230A) variant
- protocol conditions: iodide uptake, G230A substitution
measurement type: pIC50
Scale explanation: pIC50 corresponds to minus log10 of a concentration expressed in moles per litre.

Check out these entries, answers already filled in.
CN1C(CSCC(F)(F)F)Nc2cc(Cl)c(S(N)(=O)=O)cc2S1(=O)=O (stereo not drawn) [polythiazide] | 8.85
CC1Cc2ccccc2N1NC(=O)c1ccc(Cl)c(S(N)(=O)=O)c1 (stereo not drawn) [indapamide] | 7.54

Switching to the query record.
In: # lookup: pIC50 of NS(=O)(=O)c1cc(C2(O)NC(=O)c3ccccc32)ccc1Cl (stereo not drawn) [chlorthalidone]
Out: 6.03
